System: Human immunodeficiency virus 1
Method Description: Antiviral activity against HIV1 with RT K103N mutation by cytopathic cell killing assay
Assay type: functional, organism-based
pEC50: −log10 of the molar value.
Assay Readout: pEC50

INSERT INTO results (compound_smiles, inequality_operator, test_value) VALUES
  ('CC(=O)OCc1cccc2c1nc(-c1c(F)cccc1F)n2Cc1c(F)cccc1F', '=', 7.57),
  ('N#CCc1cccc2c1nc(-c1c(F)cccc1F)n2Cc1c(F)cccc1F', '=', 5.38),
  ('Cc1cccc2c1nc(-c1c(F)cccc1F)n2Cc1c(F)cccc1F', '=', 5.09),
  ('[N-]=[N+]=NCc1cccc2c1nc(-c1c(F)cccc1F)n2Cc1c(F)cccc1F', '=', 5.83),
  ('Fc1cccc(F)c1Cn1c(-c2c(F)cccc2F)nc2c(CCl)cccc21', '=', 5.48),
  ('CC(=O)Nc1cccc2c1nc(-c1c(F)cccc1F)n2Cc1c(F)cccc1F', '<', 4.00),
  ('Fc1cccc(F)c1Cn1c(-c2c(F)cccc2F)nc2c(Cl)cccc21', '=', 4.99),
  ('NCc1cccc2c1nc(-c1c(F)cccc1F)n2Cc1c(F)cccc1F', '<', 4.30),
  ('OCc1cccc2c1nc(-c1c(F)cccc1F)n2Cc1c(F)cccc1F', '=', 4.87);

* * *

The entries below are paired with their reported EC50.
Test system: Human immunodeficiency virus 1
Method Description: Antiviral activity against HIV1 with RT K103N mutation by cytopathic cell killing assay
Assay type: functional, organism-based
Assay Readout: EC50

INSERT INTO assay_data (compound_smiles, test_value) VALUES
  ('COc1cccc2c1nc(-c1c(F)cccc1F)n2Cc1c(F)cccc1F', '> 50 µM'),
  ('Nc1cccc2c1nc(-c1c(F)cccc1F)n2Cc1c(F)cccc1F', '3.1 µM'),
  ('Cc1ccnc2c1NC(=O)c1cccnc1N2C1CC1', '1.09 µM'),
  ('CCc1cccc2c1nc(-c1c(F)cccc1F)n2Cc1c(F)cccc1F', '> 50 µM'),
  ('Fc1cccc(F)c1Cn1c(-c2c(F)cccc2F)nc2c(Br)cccc21', '> 20 µM'),
  ('CC(=O)N(C)c1cccc2c1nc(-c1c(F)cccc1F)n2Cc1c(F)cccc1F', '> 10 µM');

* * *

Reported pIC50 is given for each of the following compounds.
Tested Target: Human immunodeficiency virus type 1 reverse transcriptase (Human immunodeficiency virus 1, UniProt Q72547)
pIC50: −log10 of the molar value.
Assay Readout: pIC50

INSERT INTO measurements (compound_smiles, test_value) VALUES
  ('CC(=O)Nc1cccc2c1nc(-c1c(F)cccc1F)n2Cc1c(F)cccc1F', 4.26),
  ('Fc1cccc(F)c1Cn1c(-c2c(F)cccc2F)nc2c(Br)cccc21', 5.79),
  ('Nc1cccc2c1nc(-c1c(F)cccc1F)n2Cc1c(F)cccc1F', 6.55),
  ('COC(=O)c1cccc2c1nc(-c1c(F)cccc1F)n2Cc1c(F)cccc1F', 3.80),
  ('O=[N+]([O-])c1cccc2c1nc(-c1c(F)cccc1F)n2Cc1c(F)cccc1F', 5.73),
  ('CCc1cccc2c1nc(-c1c(F)cccc1F)n2Cc1c(F)cccc1F', 4.76),
  ('CN(C)c1cccc2c1nc(-c1c(F)cccc1F)n2Cc1c(F)cccc1F', 4.40),
  ('Fc1cccc(F)c1Cn1c(-c2c(F)cccc2F)nc2ccccc21', 6.96),
  ('CNc1cccc2c1nc(-c1c(F)cccc1F)n2Cc1c(F)cccc1F', 5.31),
  ('Fc1cccc(F)c1Cn1c(-c2c(F)cccc2F)nc2c(Cl)cccc21', 5.58),
  ('Cc1cccc2c1nc(-c1c(F)cccc1F)n2Cc1c(F)cccc1F', 6.70),
  ('COc1cccc2c1nc(-c1c(F)cccc1F)n2Cc1c(F)cccc1F', 8.14),
  ('CC(=O)N(C)c1cccc2c1nc(-c1c(F)cccc1F)n2Cc1c(F)cccc1F', 6.49);
